Hi, quick share: literature Ki data for Somatostatin receptor type 5 (Homo sapiens), several sources combined.
measurementName: Ki (µM)

Example results:
Suppose we examine the molecule COc1ccc(CN2CCC(Nc3nc4ccccc4s3)CC2)cc1OC ; what Ki value has been reported? 1.79

Suppose we examine the molecule CC(C)[C@H]1NC(=O)[C@H](CCCCN)NC(=O)[C@@H](Cc2c[nH]c3ccccc23)NC(=O)[C@H](Cc2c[nH]cn2)NC(=O)C(NC(=O)[C@@H](N)Cc2c(F)c(F)c(F)c(F)c2F)CSSCC(C(=O)N[C@@H](Cc2c(F)c(F)c(F)c(F)c2F)C(N)=O)NC1=O (stereo in doubt) ; what Ki value has been reported? 0.926

I. CC(C)(C)c1ccc(C(N)=N[C@H](Cc2c[nH]c3ccccc23)c2nc(-c3ccccc3)c[nH]2)cc1
II. NCCCn1c(SCCc2c[nH]c3ccccc23)nnc1-c1ccc2ccccc2c1
III. NC(=N[C@H](Cc1c[nH]c2ccccc12)c1nc(-c2ccccc2)c[nH]1)c1ccc(Cl)cc1
Sort these molecules on Ki so the largest reading comes first. Please, when replying, give the labels in the order that was requested. I, III, II
